Target: human mAChR M4 (Homo sapiens, UniProt P08173)
Sequence (P08173 whole entry): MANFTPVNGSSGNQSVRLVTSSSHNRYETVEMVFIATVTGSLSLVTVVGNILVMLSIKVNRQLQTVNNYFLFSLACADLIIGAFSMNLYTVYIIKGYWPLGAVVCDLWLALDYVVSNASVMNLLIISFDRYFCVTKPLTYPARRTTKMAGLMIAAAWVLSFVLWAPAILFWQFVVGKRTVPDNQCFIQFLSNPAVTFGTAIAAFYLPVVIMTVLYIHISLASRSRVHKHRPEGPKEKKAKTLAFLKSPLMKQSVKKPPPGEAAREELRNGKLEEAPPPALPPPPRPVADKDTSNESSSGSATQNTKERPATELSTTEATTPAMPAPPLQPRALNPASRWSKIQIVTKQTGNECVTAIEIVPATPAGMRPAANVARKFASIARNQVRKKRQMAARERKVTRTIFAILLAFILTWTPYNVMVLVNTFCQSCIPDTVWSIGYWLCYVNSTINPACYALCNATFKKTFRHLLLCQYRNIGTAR
Test: mAChR M4 cell-based functional assay: calcium mobilization (Fluo-4, FDSS), potentiation of EC20 acetylcholine response in hM4-Gqi5 CHO-K1 cells
Conditions: potentiation of EC20 acetylcholine response, calcium mobilization, human M4
EXPERIMENTAL READOUT: EC50 (nM)

Cc1cc(=O)n2nc(N3CCc4ncc(-c5cncc(F)c5)cc4C3)c(C)c(C)c2n1 [Compound 1-134]	700
Cc1cc(=O)n2nc(N3CCc4ncc(-c5cnc(Cl)cc5C)cc4C3)c(C)cc2n1 [Compound 1-207]	315
Cc1cc(=O)n2nc(N3CCc4ncc(-c5ccc(CO)s5)cc4C3)c(C)cc2n1 [Compound 1-299]	41
Cc1c(N2CCc3ncc(-c4cnc5ccccc5c4)cc3C2)nn2c(=O)ccnc2c1C [Compound 1-224]	651
Cc1cc(=O)n2nc(N3CCc4ncc(N5C[C@@H](C)O[C@@H](C)C5)cc4C3)c(C)c(C)c2n1 [Compound 2-38]	1300

a: Cc1cc2nccc(=O)n2nc1N1CCc2ncc(Nc3cc(F)cc(C#N)c3)cc2C1 [Compound 2-104]
b: Cc1cc2nccc(=O)n2nc1N1CCc2ncc(Nc3cncnc3C)cc2C1 [Compound 2-139]
c: Cc1cc2nccc(=O)n2nc1N1CCc2ncc(-c3ccccc3C(C)C)cc2C1 [Compound 1-439]
stdin: Could you please sort these 3 entries by EC50 from high to low? Present the labels in the sequence the task asks for.
stdout: b, c, a
(b: 1820 nM, c: 1230 nM, a: 46 nM)

1: Cc1cc2nccc(=O)n2nc1N1CCc2ncc(-c3cn(C)nn3)cc2C1 [Compound 1-321]
2: Cc1cc2n(n1)CCCN2c1cnc2c(c1)CN(c1nn3c(=O)ccnc3cc1C)CC2 [Compound 2-5]
3: Cc1ncc(-c2cnc3c(c2)CN(c2nn4c(=O)ccnc4cc2C)CC3)o1 [Compound 1-397]
4: Cc1c(N2CCc3ncc(-c4cnn(C5CCOCC5)c4)cc3C2)nn2c(=O)ccnc2c1C [Compound 1-192]
5: Cc1cc(=O)n2nc(N3CCc4ncc(N5CCSCC5)cc4C3)c(C)c(C)c2n1 [Compound 2-46]
stdin: // sort entries: EC50, high to low Record the ranking as a list of labels in the requested order.
stdout: 1, 3, 5, 4, 2
(1: 2180 nM, 3: 1080 nM, 5: 308 nM, 4: 139 nM, 2: 60 nM)

These entries and their values trace back to patent US20250101041A1.
